Some compounds, each annotated with its measured melting point.

Consider the reported melting point for these compounds:
compound	val
N#Cc1cccc(C2=Nc3cc(CO)c(-c4ccccc4F)cc3NC(=O)C2)c1	90 to 91 °C
Nc1ccc(C2CCc3ccccc3O2)cc1 (centres undefined)	85 to 87 °C
C[C@]1(CN2CCN(C(=O)N3CC=C(c4ccc(Cl)cc4)CC3)CC2)Cn2cc([N+](=O)[O-])nc2O1	161 to 162 °C
CCOC(=O)NC1CCCCn2c1nc(-c1ccncn1)cc2=O (centres undefined)	168 to 170 °C
CS(=O)(=O)Nn1c(=O)[nH]c2cc(C(F)(F)F)c(C3CCCO3)cc2c1=O (centres undefined)	254 to 257 °C
CCCc1c(OCCCCCOc2ccc(C(=O)c3cccc(C(=O)O)c3)cc2CCC(=O)O)ccc2c1OCCC2=O	122 to 128 °C
COc1ccccc1C(Nc1ccncc1)c1ccccc1 (centres undefined)	143 to 145 °C
CC1(C)N=C(NC(=O)c2ccco2)N=C(NC(=O)c2ccco2)N1OCc1cccc2ccccc12	173 to 177 °C

Next item in the queue.
Recorded result, "NS(=O)(=O)c1cc2cc(-c3nc(C(F)(F)F)c[nH]3)ccc2s1" , melting point: 285 to 286 °C

---

observation.type: melting point

Consider the reported melting point for these molecules:
molecule	melting point
CCOC(=O)c1cn(Cc2ccccc2)nc1OCc1ccc(OCc2nc(-c3ccco3)oc2C)c(Br)c1	158 to 159 °C
Cc1cccc(N2Cc3ccccc3P2(=O)C(C)C)c1 (stereo not drawn)	112 to 113 °C
N=C(N)Nc1ccc(C(=O)Nc2cccc3cccnc23)cc1	271 to 273 °C
CC[C@@H](C[C@H](O)[C@H](CC1CCCCC1)NC(=O)[C@H](Cc1c[nH]cn1)NC[C@H](Cc1ccccc1)NC(=O)OC(C)(C)C)C(C)C	144 °C
CN(C(=O)c1ccc(N2CCOCC2)cc1)[C@@H]1CCN(C(=O)C2CCN(C(=O)C3(O)CC3)CC2)C[C@H]1c1ccc(Cl)c(Cl)c1	151 to 153 °C
Cc1cc(CNC(=O)C(=O)NCCc2ccccn2)c(C)o1	112 to 115 °C
COC(=O)C(C(C)C)N(C)S(=O)(=O)c1ccc(-c2ccc(NC(=O)c3cc4ccccc4o3)cc2)cc1 (stereo not drawn)	67 to 69 °C

Next item in the queue.
Recorded result, "COc1ccc2c(c1)cc(-c1nc(C)no1)n2-c1ccc(CNC(=O)C2(N)CC2)cc1" , melting point: 145 to 146 °C

---

observation.type: melting point

Consider the reported melting point for these compounds:
compound	val
COc1ccc(-c2nc(C(OC)(C(F)(F)F)C(F)(F)F)[nH]c2-c2ccc(OC)cc2)cc1	129 to 131 °C
O=C(O)COc1ccc2c(-c3ccco3)noc2c1Cl	230 to 233 °C
COC(=O)Nc1ccc(Br)cc1I	129 to 130 °C
CC1(C)CCC(C)(C)c2cc(Oc3ccc(C=C(O)C(=O)O)cc3)ccc21	207 to 210 °C
Cc1cc(N)cc(C)c1-c1ccc(-c2c(C)cc(N)cc2C)o1	144 to 146 °C
CCOC(=O)/C=C/c1cn(Cc2ccccc2)nc1OCc1ccc(OCc2nc(-c3ccco3)oc2C)c(OC)c1	147 to 148 °C

Recorded result, OC1CSC(Oc2cncc(-c3c(F)cc(F)cc3F)c2)C(O)C1O (stereo unspecified) , melting point: 228 °C

Recorded result, COC(=O)[C@H]1[C@@H](N=[N+]=[N-])C(=O)N1Cc1ccc(OC)cc1OC (relative stereo) , melting point: 82 to 84 °C

Recorded result, "COc1ccc(-c2c3ccccc3cc3sc4ccccc4c23)cc1" , melting point: 220 to 221 °C

Recorded result, "COc1c([N+](=O)[O-])cc(C(C)=O)c2c1CCCC2" , melting point: 76 to 77 °C

Recorded result, COc1cc(C)c(C(O)c2c(C(F)(F)F)cnc(Cl)c2Cl)c(OC)c1OC (stereo unspecified) , melting point: 95 to 98 °C

Recorded result, "COC1=CCC(OC)(OC)C=C1CCc1ccc(OC)cc1C" , melting point: 71 to 72 °C

Recorded result, "O=C1CCCc2ccc(OCCCCN3CCN(c4cccc5c4CCC5)CC3)nc2N1" , melting point: 207 to 208 °C

Recorded result, "COc1cccc(-c2cnc(C#N)c(C#N)n2)c1" , melting point: 139 to 140 °C

Recorded result, COc1ccc(C(=O)[C@H]2CC=CC[C@H]2C(=O)O)cc1F (relative stereo) , melting point: 185 to 187 °C

Recorded result, "CC(C)Oc1cc(-n2c(=O)[nH]c(C(F)(F)C(F)(F)F)c(F)c2=O)c(F)cc1Cl" , melting point: 160 to 162 °C

Recorded result, "COc1ccccc1-n1c(-c2sc(Nc3ccccc3)nc2C)nc2ccccc2c1=O" , melting point: 169 to 170 °C

Recorded result, "O=C(Cl)/C=C/c1cccc(Br)c1" , melting point: 85 to 86 °C

Recorded result, "O=C(NCc1ccc(Cl)cc1)c1cnc2ccc(Br)cc2c1O" , melting point: 282 to 283 °C

Recorded result, "Cc1c(-c2cc(O)c(Cl)cc2F)ncnc1C(F)(F)F" , melting point: 141 to 142 °C

Recorded result, "O=Cc1cccn1-c1ccc(C(=O)O)cc1" , melting point: 269 to 270 °C
